Below, each entry is listed with its recorded Euclidean distance.
Test system: A549
protocol: Euclidean distance of Cell Painting phenotypic profile (signed KS, 77 features) to DMSO centroid (dimensionless distance); 5 or 10 uM (library dependent); higher = stronger phenotypic change vs DMSO (phenoactivity)
experimental-context: 48 h
Structures can show the parent of a compound that is named as a salt.
Lab note: write the figure by itself, no unit.

C[C@@H]1C[C@H]2[C@@H]3CCC4=CC(=O)C=C[C@]4(C)[C@@]3(F)[C@@H](O)C[C@]2(C)[C@@]1(O)C(=O)COP(=O)(O)O [Dexamethasone Sodium Phosphate] :: 2.25
CN[C@H](CC(C)C)C(=O)N[C@H]1C(=O)N[C@@H](CC(N)=O)C(=O)N[C@H]2C(=O)N[C@H]3C(=O)N[C@H](C(=O)N[C@H](C(=O)O)c4cc(O)cc(O)c4-c4cc3ccc4O)[C@H](O)c3ccc(c(Cl)c3)Oc3cc2cc(c3O[C@@H]2O[C@H](CO)[C@@H](O)[C@H](O)[C@H]2O[C@H]2C[C@](C)(N)[C@H](O)[C@H](C)O2)Oc2ccc(cc2Cl)[C@H]1O [Vancomycin HCl] :: 0.761
O=C(O[C@H]1CN2CCC1CC2)N1CCc2ccccc2[C@@H]1c1ccccc1 [Solifenacin succinate] :: 1.56

Proceed to the following item.
-- ask Which Euclidean distance is listed for C#C[C@]1(O)CC[C@H]2[C@@H]3CCc4cc(O)ccc4[C@H]3CC[C@@]21C ?
-- reply 0.969
